target: HIV-1 (recombinant) reverse transcriptase (Human immunodeficiency virus type 1 group M subtype B, UniProt P03366); construct: 20-50 nM HIV-1 (recombinant) reverse transcriptase; assay: Enzyme test: reverse transcription reaction in vitro with recombinant RT, wild type; type: biochemical; conditions: Table 2; enzyme test; read-out: WT
reported endpoint: IC50 (nM)

INSERT INTO measurements (compound, recorded_number) VALUES
  ('COc1ccc(C=CCSc2nc(C(C)c3c(F)cccc3F)c(C)c(=O)[nH]2)cc1 (stereo not shown) [Compound 26n]', 292),
  ('CCc1c(Cc2c(Cl)cccc2Cl)nc(SCC=Cc2ccc(OC)cc2)[nH]c1=O [Compound 26e]', 56),
  ('CCc1c(C(C)c2c(F)cccc2F)nc(SCC=Cc2ccc(OC)cc2)[nH]c1=O (stereo not shown) [Compound 26p]', 16),
  ('CCc1c(Cc2c(Cl)cccc2Cl)nc(SCC=Cc2ccc([N+](=O)[O-])cc2)[nH]c1=O [Compound 26f]', 2500);

###

test system: HIV-1 mutant K103N; experiment: Inhibition of viral proliferation on culture cells (MT-4, MTT), K103N mutant; format: cell-based; conditions: Table 1; MT-4 cells; read-out: EC50 K103N
reported endpoint: EC50 (µM)

INSERT INTO measurements (chemical_structure, recorded_number) VALUES
  ('C=Cc1cc(N(CC)CC)nc(SCc2ccc(OC)cc2)n1', 3.6);

###

System: HIV-1 mutant K103N
Assay: Inhibition of viral proliferation on culture cells (MT-4, MTT), K103N mutant
Type: cell-based
Conditions: Human immunodeficiency virus 1, read-out: K100N
Experimental: The biological activity of the compounds was evaluated on lymphoid cell lines MT-4 against the wild strain of HIV-1 NL4-3. The MT-4 cells were briefly infected with the appropriate HIV-1 or the infection was simulated to determine the cytoxicity, in the presence of different concentrations of potential inhibitor compounds. 5 days after the infection a colorimetric method was used that involves using a tetrazole salt (MTT) to evaluate the number of surviving cells. […]
reported endpoint: EC50

INSERT INTO assay_data (molecule, reported_endpoint, result) VALUES
  ('Cc1c(Cc2c(Cl)cccc2Cl)nc(SCC=Cc2ccc([N+](=O)[O-])cc2)[nH]c1=O [Compound 26b]', 'EC50', '> 10.8 µM'),
  ('COc1ccc(C=CCSc2nc(Cc3c(F)cccc3F)c(C)c(=O)[nH]2)cc1 [Compound 26l]', 'EC50', '> 3.93 µM'),
  ('Cc1c(C(C)c2c(F)cccc2F)nc(SCC=Cc2ccc([N+](=O)[O-])cc2)[nH]c1=O (stereo not drawn) [Compound 26m]', 'EC50', '> 11.3 µM'),
  ('Cc1c(Cc2c(Cl)cccc2Cl)nc(SCC=Cc2ccc(N(C)C)cc2)[nH]c1=O [Compound 26d]', 'EC50', '> 54.4 µM'),
  ('COc1ccc(C=CCSc2nc(C(C)c3c(F)cccc3F)c(C)c(=O)[nH]2)cc1 (stereo not drawn) [Compound 26n]', 'EC50', '0.26 µM'),
  ('CCc1c(Cc2c(Cl)cccc2Cl)nc(SCC=Cc2ccc(C#N)cc2)[nH]c1=O [Compound 26c]', 'EC50', '> 54.8 µM');

###

tested on: wild strain of HIV-1 NL4-3; test: Inhibition of viral proliferation on culture cells (MT-4, MTT), wild strain; type: cell-based; settings: Human immunodeficiency virus 1, NL43, read-out: NL4-3 wt
reported endpoint: EC50 (nM)

INSERT INTO assay_data (compound, reported_endpoint, rel, recorded_number) VALUES
  ('CCc1c(C(C)c2c(F)cccc2F)nc(SCC=Cc2ccc([N+](=O)[O-])cc2)[nH]c1=O (stereo not shown) [Compound 26q]', 'EC50', '=', 0.4),
  ('COc1ccc(C=CCSc2nc(C(C)c3c(F)cccc3F)c(C)c(=O)[nH]2)cc1 (stereo not shown) [Compound 26n]', 'EC50', '=', 0.2),
  ('Cc1c(Cc2c(F)cccc2F)nc(SCC=Cc2ccc([N+](=O)[O-])cc2)[nH]c1=O [Compound 26i]', 'EC50', '=', 260),
  ('COc1ccc(C=CCSc2nc(C(C)c3c(Cl)cccc3Cl)c(C)c(=O)[nH]2)cc1 (stereo not shown) [Compound 26g]', 'EC50', '=', 9),
  ('Cc1c(C(C)c2c(F)cccc2F)nc(SCC=Cc2ccc([N+](=O)[O-])cc2)[nH]c1=O (stereo not shown) [Compound 26m]', 'EC50', '=', 140),
  ('CCc1c(C(C)c2c(F)cccc2F)nc(SCC=Cc2ccc(C#N)cc2)[nH]c1=O (stereo not shown) [Compound 26r]', 'EC50', '=', 590),
  ('CCc1c(Cc2c(Cl)cccc2Cl)nc(SCC=Cc2ccc(OC)cc2)[nH]c1=O [Compound 26e]', 'EC50', '=', 1.5),
  ('Cc1c(Cc2c(Cl)cccc2Cl)nc(SCC=Cc2ccc(N(C)C)cc2)[nH]c1=O [Compound 26d]', 'EC50', '>', 54400),
  ('Cc1c(Cc2c(Cl)cccc2Cl)nc(SCC=Cc2ccc([N+](=O)[O-])cc2)[nH]c1=O [Compound 26b]', 'EC50', '>', 10800),
  ('CCc1c(Cc2c(Cl)cccc2Cl)nc(SCC=Cc2ccc(C#N)cc2)[nH]c1=O [Compound 26c]', 'EC50', '=', 1730);

This collection of values is drawn from patent US20100292260A1.
